// values below are reported IC50
TESTED_ON: Epidermal growth factor receptor (Homo sapiens)
TEST_NAME: Inhibition of EGFR (unknown origin)
ATTRIBUTE_MEASURED: IC50 (nM)

{"COMPOUND": "O=C(CCCCCn1cc(-c2ccc3ncnc(Nc4ccc(Br)cc4F)c3c2)nn1)NO", "TESTED_ON": "Epidermal growth factor receptor (Homo sapiens)", "ATTRIBUTE_MEASURED": "IC50", "NUMERIC_VALUE": 10.3}
{"COMPOUND": "CC(=O)O[C@H]1CC[C@]2(C)[C@H]3CC=C4[C@@H]5CC(C)(C)CC[C@]5(C(=O)OCCCC[N+](=O)[O-])CC[C@@]4(C)[C@]3(C)CC[C@H]2C1(C)CO (stereo not given in full)", "TESTED_ON": "Epidermal growth factor receptor (Homo sapiens)", "ATTRIBUTE_MEASURED": "IC50", "NUMERIC_VALUE": 10}
{"COMPOUND": "CSc1nn(-c2ccc(Br)cc2)c2nc(C)nc(Nc3ccc(OCCCC[N+](=O)[O-])cc3)c12", "TESTED_ON": "Epidermal growth factor receptor (Homo sapiens)", "ATTRIBUTE_MEASURED": "IC50", "NUMERIC_VALUE": 3000}
{"COMPOUND": "Cc1cc(NC2=NC(=O)/C(=C/c3c4ccccc4cc4ccccc34)S2)no1", "TESTED_ON": "Epidermal growth factor receptor (Homo sapiens)", "ATTRIBUTE_MEASURED": "IC50", "NUMERIC_VALUE": 45}
{"COMPOUND": "O=[N+]([O-])OCCCOc1ccc(Nc2ncnc3c2cnn3-c2ccc(Br)cc2)cc1", "TESTED_ON": "Epidermal growth factor receptor (Homo sapiens)", "ATTRIBUTE_MEASURED": "IC50", "NUMERIC_VALUE": 3000}

----------
TESTED_ON: [Pyruvate dehydrogenase (acetyl-transferring)] kinase isozyme 1, mitochondrial (Homo sapiens)
Sequence (Q15118 whole entry): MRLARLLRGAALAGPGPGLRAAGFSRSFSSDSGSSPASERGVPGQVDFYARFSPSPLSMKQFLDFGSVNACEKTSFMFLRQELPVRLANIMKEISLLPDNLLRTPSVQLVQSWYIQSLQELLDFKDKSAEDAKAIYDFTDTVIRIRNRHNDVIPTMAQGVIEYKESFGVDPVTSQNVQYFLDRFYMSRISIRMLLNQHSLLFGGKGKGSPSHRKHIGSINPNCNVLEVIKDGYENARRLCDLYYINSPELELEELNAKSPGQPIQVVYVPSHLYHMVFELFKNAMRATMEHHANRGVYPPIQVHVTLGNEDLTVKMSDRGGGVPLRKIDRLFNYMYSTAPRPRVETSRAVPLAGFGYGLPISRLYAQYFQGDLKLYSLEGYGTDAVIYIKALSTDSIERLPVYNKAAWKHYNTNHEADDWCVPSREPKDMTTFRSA
TEST_NAME: Inhibition of human recombinant PDHK1 using KKKYHGHSMSDPGVSYRT as substrate incubated for 40 mins in presence of Mg/ATP mix by [gamma-32P]-ATP based scintillation counting analysis
ATTRIBUTE_MEASURED: IC50 (µM)

{"COMPOUND_SMILES": "COc1ccc(C(=O)c2cc(OC)c(OC)c(OC)c2)cc1OC(=O)C(Cl)Cl", "NUMERIC_VALUE": 12}

----------
Test system: B16
TEST_NAME: Cytotoxicity against mouse B16 cells assessed as inhibition of cell growth incubated for 24 to 48 hrs by MTT assay
Assay type: functional, cell-based
ATTRIBUTE_MEASURED: IC50 (nM)

{"COMPOUND_SMILES": "CC(C)N1c2cc(Nc3nccc(-c4cncc5ccccc45)n3)ccc2N(C)C(=O)[C@H]1C", "NUMERIC_VALUE": 560}

----------
TESTED_ON: DNA topoisomerase 2-beta (Homo sapiens)
Sequence (Q02880 whole entry): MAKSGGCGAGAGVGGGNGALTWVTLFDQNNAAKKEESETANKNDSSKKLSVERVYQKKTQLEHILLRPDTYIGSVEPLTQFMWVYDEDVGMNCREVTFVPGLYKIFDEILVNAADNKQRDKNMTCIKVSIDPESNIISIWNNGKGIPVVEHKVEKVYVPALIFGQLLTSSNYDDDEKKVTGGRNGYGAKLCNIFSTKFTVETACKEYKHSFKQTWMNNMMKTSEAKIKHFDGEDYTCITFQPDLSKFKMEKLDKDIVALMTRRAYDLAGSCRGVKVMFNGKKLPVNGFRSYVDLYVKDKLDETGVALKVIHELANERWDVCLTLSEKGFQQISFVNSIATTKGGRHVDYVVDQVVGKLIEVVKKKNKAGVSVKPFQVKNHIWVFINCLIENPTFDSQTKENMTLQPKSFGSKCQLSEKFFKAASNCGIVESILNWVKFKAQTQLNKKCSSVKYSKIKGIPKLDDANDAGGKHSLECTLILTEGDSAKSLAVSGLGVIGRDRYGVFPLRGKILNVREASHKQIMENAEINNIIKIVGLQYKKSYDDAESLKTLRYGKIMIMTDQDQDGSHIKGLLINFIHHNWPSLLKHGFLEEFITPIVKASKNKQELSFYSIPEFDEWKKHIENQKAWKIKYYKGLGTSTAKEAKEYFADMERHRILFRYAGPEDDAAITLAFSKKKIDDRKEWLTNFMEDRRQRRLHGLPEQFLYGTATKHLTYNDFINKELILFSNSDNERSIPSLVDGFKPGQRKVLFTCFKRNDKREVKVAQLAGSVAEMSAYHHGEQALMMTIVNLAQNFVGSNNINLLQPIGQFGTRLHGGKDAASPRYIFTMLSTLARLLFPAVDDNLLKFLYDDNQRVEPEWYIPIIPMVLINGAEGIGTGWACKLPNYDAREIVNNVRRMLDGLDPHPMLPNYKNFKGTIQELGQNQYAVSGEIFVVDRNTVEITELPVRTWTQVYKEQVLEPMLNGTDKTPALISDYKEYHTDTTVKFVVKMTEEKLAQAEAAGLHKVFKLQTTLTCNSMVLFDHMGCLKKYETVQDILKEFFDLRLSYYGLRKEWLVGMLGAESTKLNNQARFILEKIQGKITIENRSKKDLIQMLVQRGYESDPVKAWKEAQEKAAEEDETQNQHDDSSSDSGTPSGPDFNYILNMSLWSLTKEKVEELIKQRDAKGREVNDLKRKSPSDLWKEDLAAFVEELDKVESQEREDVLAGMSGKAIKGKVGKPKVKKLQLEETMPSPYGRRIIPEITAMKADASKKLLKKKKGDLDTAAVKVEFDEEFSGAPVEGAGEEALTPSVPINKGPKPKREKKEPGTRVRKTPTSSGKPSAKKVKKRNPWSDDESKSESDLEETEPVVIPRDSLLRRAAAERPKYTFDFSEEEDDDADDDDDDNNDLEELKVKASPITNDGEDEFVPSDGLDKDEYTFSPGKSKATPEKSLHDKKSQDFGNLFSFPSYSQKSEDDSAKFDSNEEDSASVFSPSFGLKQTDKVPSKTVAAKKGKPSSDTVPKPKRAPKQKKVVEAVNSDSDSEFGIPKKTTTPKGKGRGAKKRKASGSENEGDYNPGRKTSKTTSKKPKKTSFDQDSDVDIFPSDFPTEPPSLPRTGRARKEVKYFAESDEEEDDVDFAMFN
TEST_NAME: Inhibition of human DNA topoisomerase 2-beta
ATTRIBUTE_MEASURED: IC50 (nM)

{"COMPOUND_SMILES": "Cc1ccc2c(=O)n(Cc3ccccc3)c(SCc3cn(-c4ccc(C(=O)O)cc4)nn3)nc2c1", "ATTRIBUTE_MEASURED": "IC50", "NUMERIC_VALUE": 25.8}

----------
TESTED_ON: DNA topoisomerase 2-alpha (Homo sapiens)
TEST_NAME: Inhibition of human topoisomerase 2 alpha assessed as relaxation of supercoiled plasmid pBR322 DNA incubated for 30 mins by ethidium bromide staining based agarose gel electrophoresis

{"COMPOUND": "CN1CCN(c2cc3c(cc2F)C(=O)C(/C=C2\\CN(C4CC4)c4cc(N5CCNCC5)c(F)cc4C2=O)CN3C2CC2)CC1 (stereo unspecified)", "TESTED_ON": "DNA topoisomerase 2-alpha (Homo sapiens)", "IC50 (nM)": 1600}

----------
TEST_NAME: Inhibition of tyrosine kinase in human CAPAN-1 cells
Type: cell-based
pIC50: −log10 of the molar value.
ATTRIBUTE_MEASURED: pIC50

{"MOLECULE": "CN1CCN(c2cc3c(cc2F)C(=O)C(/C=C2\\CN(C4CC4)c4cc(N5CCNCC5)c(F)cc4C2=O)CN3C2CC2)CC1 (stereo unspecified)", "NUMERIC_VALUE": 6.19}

----------
TESTED_ON: Epidermal growth factor receptor (Homo sapiens)
TEST_NAME: Inhibition of EGFR (unknown origin) phosphorylation using kit-tyr4 peptide as substrate incubated for 1 hr in presence of ATP by UV-Vis spectrophotometer

{"COMPOUND_SMILES": "COc1ccc(CNc2nc3ccccc3c(NCc3ccc(OC)cc3)c2[N+](=O)[O-])cc1", "TESTED_ON": "Epidermal growth factor receptor (Homo sapiens)", "IC50 (nM)": 220}

----------
// values below are reported IC50
TESTED_ON: Tyrosine-protein kinase JAK2 (Homo sapiens, UniProt O60674)
TEST_NAME: Inhibition of JAK2 (unknown origin)

{"COMPOUND_SMILES": "CC(=O)Nc1ccc(-c2ccnc(NCc3ccc(OCCCCCC(=O)NO)cc3)n2)cc1", "UNIT_DESCRIPTOR": "nM", "IC50": 2.6}
{"COMPOUND_SMILES": "CS(=O)(=O)Nc1ccc(-c2ccnc(Nc3ccc(N4CCC(CCc5ccc(/C=C/CC(=O)NO)cc5)CC4)cc3)n2)cc1", "UNIT_DESCRIPTOR": "nM", "IC50": 8}

----------
TEST_NAME: Cytotoxicity against human UKE-1 cells incubated for 96 hrs by resazurin dye based analysis
Format: functional, cell-based
TEST_CONDITIONS: UKE1, 96 h
pIC50: −log10 of the molar value.

{"COMPOUND_SMILES": "Cc1cnc(Nc2ccc(N3CCN(C)CC3)c(F)c2)nc1Nc1ccc(S(=O)(=O)NC(C)(C)C)cc1", "pIC50": 7.10}

----------
System: U-937
TEST_NAME: Antiproliferative activity against human U-937 cells assessed as inhibition of cell growth incubated for 72 hrs by MTT assay
Format: functional, cell-based
TEST_CONDITIONS: U-937, 72 h
pIC50: −log10 of the molar value.

{"COMPOUND_SMILES": "COc1ccc(CCNc2nc(N)c(C(=O)c3cc(OC)c(OC)c(OC)c3)s2)cc1", "pIC50": 5.24}

----------
TESTED_ON: Protein deacetylase HDAC6 (Homo sapiens, UniProt Q9UBN7)
Sequence (Q9UBN7 whole entry): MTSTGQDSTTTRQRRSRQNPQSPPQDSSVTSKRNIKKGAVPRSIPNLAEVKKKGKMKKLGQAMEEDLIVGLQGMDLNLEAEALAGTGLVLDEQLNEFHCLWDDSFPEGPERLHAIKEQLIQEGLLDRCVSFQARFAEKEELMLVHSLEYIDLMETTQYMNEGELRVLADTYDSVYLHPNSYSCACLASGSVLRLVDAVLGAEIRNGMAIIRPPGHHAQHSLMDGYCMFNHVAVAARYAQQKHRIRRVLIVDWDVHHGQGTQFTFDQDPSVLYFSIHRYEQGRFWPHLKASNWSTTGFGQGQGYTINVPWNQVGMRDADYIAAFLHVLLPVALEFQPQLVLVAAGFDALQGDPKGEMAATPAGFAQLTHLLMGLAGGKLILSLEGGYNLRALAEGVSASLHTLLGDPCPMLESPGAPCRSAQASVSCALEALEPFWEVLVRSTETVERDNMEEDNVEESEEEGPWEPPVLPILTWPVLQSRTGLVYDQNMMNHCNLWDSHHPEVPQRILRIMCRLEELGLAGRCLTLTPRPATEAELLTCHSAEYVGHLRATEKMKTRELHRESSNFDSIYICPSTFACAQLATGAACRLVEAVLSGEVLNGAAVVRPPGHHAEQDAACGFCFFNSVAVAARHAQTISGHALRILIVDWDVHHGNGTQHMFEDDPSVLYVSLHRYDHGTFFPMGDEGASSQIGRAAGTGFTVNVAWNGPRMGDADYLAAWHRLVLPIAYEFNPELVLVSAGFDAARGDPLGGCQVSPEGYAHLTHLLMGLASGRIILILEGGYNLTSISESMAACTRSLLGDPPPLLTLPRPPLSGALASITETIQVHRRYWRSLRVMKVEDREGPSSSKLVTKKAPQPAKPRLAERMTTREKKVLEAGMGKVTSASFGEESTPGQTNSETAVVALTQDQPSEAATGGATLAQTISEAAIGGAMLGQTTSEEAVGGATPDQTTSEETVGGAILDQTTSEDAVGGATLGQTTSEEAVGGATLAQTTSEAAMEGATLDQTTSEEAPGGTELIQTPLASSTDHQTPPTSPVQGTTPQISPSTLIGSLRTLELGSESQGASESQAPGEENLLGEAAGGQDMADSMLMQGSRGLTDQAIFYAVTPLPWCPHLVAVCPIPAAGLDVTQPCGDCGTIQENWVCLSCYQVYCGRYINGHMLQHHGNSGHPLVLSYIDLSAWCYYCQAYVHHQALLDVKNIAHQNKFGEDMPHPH
TEST_NAME: Inhibition of HDAC6 (unknown origin)
pIC50: −log10 of the molar value.
ATTRIBUTE_MEASURED: pIC50

{"COMPOUND_SMILES": "CS(=O)(=O)Nc1ccc(-c2ccnc(Nc3ccc(N4CCC(CCc5ccc(/C=C/CC(=O)NO)cc5)CC4)cc3)n2)cc1", "NUMERIC_VALUE": 7.34}
{"COMPOUND_SMILES": "O=C(CCCCCn1cc(-c2ccc3ncnc(Nc4ccc(Br)cc4F)c3c2)nn1)NO", "NUMERIC_VALUE": 8.37}
{"COMPOUND_SMILES": "CC(=O)Nc1ccc(-c2ccnc(NCc3ccc(OCCCCCC(=O)NO)cc3)n2)cc1", "NUMERIC_VALUE": 7.70}

----------
System: A549
TEST_NAME: Antiproliferative activity against human A549 cells assessed as inhibition of cell growth incubated for 48 hrs by MTT assay
Assay type: functional, cell-based
TEST_CONDITIONS: A549, 48 h
// values below are reported IC50
ATTRIBUTE_MEASURED: IC50

{"COMPOUND_SMILES": "O=C(Nc1ccc(Oc2ccc(C(=O)c3ncc[nH]3)cc2)cc1)Nc1ccc(C(F)(F)F)c(Cl)c1", "TESTED_ON": "A549", "RESULT": "9.11 µM"}
{"COMPOUND_SMILES": "COc1ccc(CNc2nc3ccccc3c(NCc3ccc(OC)cc3)c2[N+](=O)[O-])cc1", "TESTED_ON": "A549", "RESULT": "6.5 µM"}

----------
TESTED_ON: Phosphatidylinositol 4,5-bisphosphate 3-kinase catalytic subunit alpha isoform (Homo sapiens, UniProt P42336)
Sequence (P42336 whole entry, canonical isoform): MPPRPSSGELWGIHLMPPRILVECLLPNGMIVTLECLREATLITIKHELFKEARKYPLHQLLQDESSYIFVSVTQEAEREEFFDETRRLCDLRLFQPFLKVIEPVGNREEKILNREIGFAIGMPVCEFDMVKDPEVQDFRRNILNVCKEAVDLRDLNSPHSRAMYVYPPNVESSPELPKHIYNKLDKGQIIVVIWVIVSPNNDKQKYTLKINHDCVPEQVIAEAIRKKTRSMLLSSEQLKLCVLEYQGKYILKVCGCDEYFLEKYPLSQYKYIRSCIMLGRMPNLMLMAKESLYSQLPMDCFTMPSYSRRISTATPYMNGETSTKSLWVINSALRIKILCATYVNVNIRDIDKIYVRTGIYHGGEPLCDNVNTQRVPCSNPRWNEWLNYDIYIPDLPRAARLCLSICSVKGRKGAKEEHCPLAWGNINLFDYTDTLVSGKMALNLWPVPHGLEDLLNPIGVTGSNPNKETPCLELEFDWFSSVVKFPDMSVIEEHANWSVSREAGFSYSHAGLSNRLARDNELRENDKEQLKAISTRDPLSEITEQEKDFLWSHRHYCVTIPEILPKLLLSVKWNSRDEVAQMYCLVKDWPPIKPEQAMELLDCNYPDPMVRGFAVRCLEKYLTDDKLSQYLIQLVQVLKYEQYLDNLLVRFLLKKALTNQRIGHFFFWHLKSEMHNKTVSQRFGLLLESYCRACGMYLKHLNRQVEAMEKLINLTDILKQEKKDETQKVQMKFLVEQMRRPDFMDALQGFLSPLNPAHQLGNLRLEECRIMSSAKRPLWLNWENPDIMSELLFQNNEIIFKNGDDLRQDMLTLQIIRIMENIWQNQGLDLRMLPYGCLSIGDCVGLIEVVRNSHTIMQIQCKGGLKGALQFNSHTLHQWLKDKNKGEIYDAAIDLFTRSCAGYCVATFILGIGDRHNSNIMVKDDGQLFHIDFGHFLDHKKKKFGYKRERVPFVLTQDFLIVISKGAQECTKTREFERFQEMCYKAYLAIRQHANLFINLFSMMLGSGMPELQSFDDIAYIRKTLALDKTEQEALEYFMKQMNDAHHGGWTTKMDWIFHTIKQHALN
TEST_NAME: Inhibition of PI3Kalpha (unknown origin)

{"COMPOUND_SMILES": "CCCCOCc1ncnc2sc3c(c12)CN(C(=O)c1cc(C(C)C)c(O)cc1O)CC3", "IC50": "48 nM"}

----------
TESTED_ON: UniProt Q13547
Sequence (Q13547 whole entry): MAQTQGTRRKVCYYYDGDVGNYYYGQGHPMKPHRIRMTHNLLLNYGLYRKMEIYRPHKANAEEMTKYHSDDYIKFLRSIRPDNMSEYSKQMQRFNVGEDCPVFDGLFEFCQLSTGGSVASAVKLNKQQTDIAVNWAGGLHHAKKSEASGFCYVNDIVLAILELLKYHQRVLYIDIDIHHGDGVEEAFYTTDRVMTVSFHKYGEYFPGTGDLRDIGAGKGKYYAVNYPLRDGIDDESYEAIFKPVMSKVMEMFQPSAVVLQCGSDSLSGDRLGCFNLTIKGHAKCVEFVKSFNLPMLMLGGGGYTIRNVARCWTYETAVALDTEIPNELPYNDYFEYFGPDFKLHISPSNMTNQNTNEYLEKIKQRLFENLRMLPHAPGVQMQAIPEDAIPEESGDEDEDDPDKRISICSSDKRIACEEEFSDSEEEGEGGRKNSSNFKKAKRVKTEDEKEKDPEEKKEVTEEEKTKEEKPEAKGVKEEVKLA
TEST_NAME: Inhibition of HDAC1 (unknown origin)
pIC50: −log10 of the molar value.
// values below are reported pIC50

{"COMPOUND_SMILES": "O=C(CCCCCn1cc(-c2ccc3ncnc(Nc4ccc(Br)cc4F)c3c2)nn1)NO", "TESTED_ON": "UniProt Q13547", "pIC50": 8.96}
{"COMPOUND_SMILES": "CC(=O)Nc1ccc(-c2ccnc(NCc3ccc(OCCCCCC(=O)NO)cc3)n2)cc1", "TESTED_ON": "UniProt Q13547", "pIC50": 6.51}
{"COMPOUND_SMILES": "O=C(CCn1cc(CCn2nc3c(Br)c(Br)c(Br)c(Br)c3n2)nn1)NO", "TESTED_ON": "UniProt Q13547", "pIC50": 5.30}
